src = paper PMC10397247

Biological target: T1, 4H3009-AA
T1 chain: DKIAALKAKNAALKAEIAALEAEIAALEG
Assay: two-hybrid library CCmax;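 further: natural log of median RNA to DNA barcode read ratio; higher means stronger binding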
Conditions: mean of both orientations
endpoint_name: interaction score

I. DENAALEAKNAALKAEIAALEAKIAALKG [4H1478-AA]
II. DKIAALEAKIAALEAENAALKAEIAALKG [4H2330-AA]
III. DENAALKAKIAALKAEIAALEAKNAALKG [4H1864-AA]
IV. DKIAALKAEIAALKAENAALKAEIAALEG [4H2649-AA]
Exercise: Ranking criterion: interaction score, increasing numeric value. Items: as listed above. Returns: the labels arranged in the requested order.
Solution: II, III, IV, I
